Test Details: clinical
Set-up: species or system human
Condition Info: human, in vivo, iv, 2000 mg, Mean cilengitide concentration

Compound: CC(C)[C@H]1C(=O)N[C@@H](CCCNC(=N)N)C(=O)NCC(=O)N[C@@H](CC(=O)O)C(=O)N[C@H](Cc2ccccc2)C(=O)N1C [cilengitide, Cilengitide]
Unit Abbreviation: µg/mL
level at 2 h: 73.2

###

Test Details: clinical
Design: species or system human
Condition Info: human, in vivo, iv, 500 mg, Mean cilengitide concentration

Molecule: CC(C)[C@H]1C(=O)N[C@@H](CCCNC(=N)N)C(=O)NCC(=O)N[C@@H](CC(=O)O)C(=O)N[C@H](Cc2ccccc2)C(=O)N1C [cilengitide, Cilengitide]
Unit Abbreviation: ng/mL
level at 2 h: 18200

###

Test Details: clinical
Design: species or system human
Condition Info: human, in vivo, iv, 2000 mg, Mean cilengitide concentration
Endpoint Name: level at 4 h (ng/mL)

Molecule: CC(C)[C@H]1C(=O)N[C@@H](CCCNC(=N)N)C(=O)NCC(=O)N[C@@H](CC(=O)O)C(=O)N[C@H](Cc2ccccc2)C(=O)N1C [cilengitide, Cilengitide]
Endpoint Name: level at 4 h
Data Value: 35900

###

Test Details: clinical
Set-up: species or system human
Condition Info: human, in vivo, iv, 2000 mg, Mean cilengitide concentration
Endpoint Name: level at 24 h (ng/mL)

Compound: CC(C)[C@H]1C(=O)N[C@@H](CCCNC(=N)N)C(=O)NCC(=O)N[C@@H](CC(=O)O)C(=O)N[C@H](Cc2ccccc2)C(=O)N1C [cilengitide, Cilengitide]
Endpoint Name: level at 24 h
Unit Abbreviation: ng/mL
Data Value: 710

###

Test Details: clinical
Set-up: species or system human
Condition Info: human, in vivo, iv, 500 mg, Mean cilengitide concentration

Compound: CC(C)[C@H]1C(=O)N[C@@H](CCCNC(=N)N)C(=O)NCC(=O)N[C@@H](CC(=O)O)C(=O)N[C@H](Cc2ccccc2)C(=O)N1C [cilengitide, Cilengitide]
Unit Abbreviation: ng/mL
level at 4 h: 8250

Values from paper PMC3880198
